Sourced from PubChem BioAssay AID1963960

- System: MDA-MB-468 spheroids with HUVEC/MSC, viability
- assay.text: Anticancer human tumor MDA-MB-468 cell line growth inhibition [PI3K]; active = viability on the fitted dose curve at most 10% of control; inactive = the rest;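 note: spheroids exposed to agents for seven days before readout; 100% = DMSO vehicle control viability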
- condition.set: second compound 1 µM; first compound 0.001 µM
Choose the fitting class; nothing outside class 1 (active), class 0 (inactive) is accepted.

Query: GET /call?item= Cn1ncnc1[C@H]1c2n[nH]c(=O)c3cc(F)cc(c23)N[C@@H]1c1ccc(F)cc1 + COc1c(OCCCN2CCOCC2)ccc2c3n(c(=NC(=O)c4cnc(N)nc4)nc12)CCN3 returns the recorded outcome of this test.
Response: class 1

Query: Now the molecule CC(C)n1nc(-c2ccc3oc(N)nc3c2)c2c(N)ncnc21 + Cc1nc(NC(=O)N2CCCC2C(N)=O)sc1-c1ccnc(C(C)(C)C(F)(F)F)c1
Response: class 0

Query: Now the molecule Cn1ncnc1[C@H]1c2n[nH]c(=O)c3cc(F)cc(c23)N[C@@H]1c1ccc(F)cc1 + Cc1nc(NC(=O)N2CCCC2C(N)=O)sc1-c1ccnc(C(C)(C)C(F)(F)F)c1
Response: class 0

Query: Now the molecule CC(C)n1nc(-c2ccc3oc(N)nc3c2)c2c(N)ncnc21 + CC(Nc1ncnc2nc[nH]c12)c1cc2cccc(Cl)c2c(=O)n1-c1ccccc1
Response: class 0

Query: Now the molecule CC(=O)c1c(C)c2cnc(Nc3ccc(N4CCNCC4)cn3)nc2n(C2CCCC2)c1=O + CC(Nc1ccc2c(c1)OCCn1cc(N3C(=O)OCC3C(F)F)nc1-2)C(N)=O
Response: class 0

Query: Now the molecule CC(C)n1nc(-c2ccc3oc(N)nc3c2)c2c(N)ncnc21 + CC(Nc1ccc2c(c1)OCCn1cc(N3C(=O)OCC3C(F)F)nc1-2)C(N)=O
Response: class 0

Query: Now the molecule CC(=O)c1c(C)c2cnc(Nc3ccc(N4CCNCC4)cn3)nc2n(C2CCCC2)c1=O + Cc1nc(NC(=O)N2CCCC2C(N)=O)sc1-c1ccnc(C(C)(C)C(F)(F)F)c1
Response: class 0

Query: Now the molecule CC(C)n1nc(-c2ccc3oc(N)nc3c2)c2c(N)ncnc21 + COc1c(OCCCN2CCOCC2)ccc2c3n(c(=NC(=O)c4cnc(N)nc4)nc12)CCN3
Response: class 1

Query: Now the molecule CC(=O)c1c(C)c2cnc(Nc3ccc(N4CCNCC4)cn3)nc2n(C2CCCC2)c1=O + COc1c(OCCCN2CCOCC2)ccc2c3n(c(=NC(=O)c4cnc(N)nc4)nc12)CCN3
Response: class 1

Query: Now the molecule CC(=O)c1c(C)c2cnc(Nc3ccc(N4CCNCC4)cn3)nc2n(C2CCCC2)c1=O + CC(Nc1ncnc2nc[nH]c12)c1cc2cccc(Cl)c2c(=O)n1-c1ccccc1
Response: class 0

Query: Now the molecule Cn1ncnc1[C@H]1c2n[nH]c(=O)c3cc(F)cc(c23)N[C@@H]1c1ccc(F)cc1 + CC(Nc1ccc2c(c1)OCCn1cc(N3C(=O)OCC3C(F)F)nc1-2)C(N)=O
Response: class 0

Query: Now the molecule Cn1ncnc1[C@H]1c2n[nH]c(=O)c3cc(F)cc(c23)N[C@@H]1c1ccc(F)cc1 + CC(Nc1ncnc2nc[nH]c12)c1cc2cccc(Cl)c2c(=O)n1-c1ccccc1
Response: class 0

###

- Tested on: MDA-MB-468 spheroids with HUVEC/MSC, viability
- assay.text: Anticancer human tumor MDA-MB-468 cell line growth inhibition [PI3K];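 note: spheroids exposed to agents for seven days before readout; 100% = DMSO vehicle control viability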
- condition.set: second compound 1 µM; first compound 0.0316 µM; stronger effect = lower value
assay.readout: viability, T/C (%)
Answer format: numeric, % implied, no suffix.

Query: What does the data say about its viability, T/C? Entry: C=CC(=O)N1CCN(c2nc(=O)n(-c3c(C)ccnc3C(C)C)c3nc(-c4c(O)cccc4F)c(F)cc23)C(C)C1 (stereo unspecified) + Cc1nc(NC(=O)N2CCCC2C(N)=O)sc1-c1ccnc(C(C)(C)C(F)(F)F)c1
Response: 77.4

Query: Now the compound CC(=O)c1c(C)c2cnc(Nc3ccc(N4CCNCC4)cn3)nc2n(C2CCCC2)c1=O + CC(Nc1ccc2c(c1)OCCn1cc(N3C(=O)OCC3C(F)F)nc1-2)C(N)=O
Response: 66.7

Query: Now the compound CC1(C)CCC(CN2CCN(c3ccc(C(=O)NS(=O)(=O)c4ccc(NCC5CCOCC5)c([N+](=O)[O-])c4)c(Oc4cnc5[nH]ccc5c4)c3)CC2)=C(c2ccc(Cl)cc2)C1 + CC(Nc1ncnc2nc[nH]c12)c1cc2cccc(Cl)c2c(=O)n1-c1ccccc1
Response: 58.9

Query: Now the compound CC(Cn1ccc(-c2ccc(C#N)c(Cl)c2)n1)NC(=O)c1cc(C(C)O)[nH]n1 (stereo unspecified) + COc1c(OCCCN2CCOCC2)ccc2c3n(c(=NC(=O)c4cnc(N)nc4)nc12)CCN3
Response: 2.86

Query: Now the compound CNC(=O)c1ccc(N2C(=S)N(c3ccc(C#N)c(C(F)(F)F)c3)C(=O)C2(C)C)cc1F + CC(Nc1ncnc2nc[nH]c12)c1cc2cccc(Cl)c2c(=O)n1-c1ccccc1
Response: 58.2

Query: Now the compound C=CC(=O)N1CCN(c2nc(=O)n(-c3c(C)ccnc3C(C)C)c3nc(-c4c(O)cccc4F)c(F)cc23)C(C)C1 (stereo unspecified) + CC(Nc1ccc2c(c1)OCCn1cc(N3C(=O)OCC3C(F)F)nc1-2)C(N)=O
Response: 82.6

Query: Now the compound CCN1CCN(Cc2ccc(Nc3ncc(F)c(-c4cc(F)c5nc(C)n(C(C)C)c5c4)n3)nc2)CC1 + CC(Nc1ccc2c(c1)OCCn1cc(N3C(=O)OCC3C(F)F)nc1-2)C(N)=O
Response: 88.6

Query: Now the compound CC(Cn1ccc(-c2ccc(C#N)c(Cl)c2)n1)NC(=O)c1cc(C(C)O)[nH]n1 (stereo unspecified) + CC(Nc1ccc2c(c1)OCCn1cc(N3C(=O)OCC3C(F)F)nc1-2)C(N)=O
Response: 93

Query: Now the compound CNC(=O)c1ccc(N2C(=S)N(c3ccc(C#N)c(C(F)(F)F)c3)C(=O)C2(C)C)cc1F + Cc1nc(NC(=O)N2CCCC2C(N)=O)sc1-c1ccnc(C(C)(C)C(F)(F)F)c1
Response: 97

Query: Now the compound C#Cc1c(F)ccc2cc(O)cc(-c3ncc4c(N5CC6CCC(C5)N6)nc(OCC56CCCN5CC(F)C6)nc4c3F)c12 (stereo unspecified) + Cc1nc(NC(=O)N2CCCC2C(N)=O)sc1-c1ccnc(C(C)(C)C(F)(F)F)c1
Response: 92.4

Query: Now the compound Cn1ncc(Cl)c1-c1cc(C(=O)NC(CN)Cc2cccc(F)c2)sc1Cl (stereo unspecified) + CC(Nc1ncnc2nc[nH]c12)c1cc2cccc(Cl)c2c(=O)n1-c1ccccc1
Response: 58.4

Query: Now the compound CCCS(=O)(=O)Nc1ccc(F)c(C(=O)c2c[nH]c3ncc(-c4ccc(Cl)cc4)cc23)c1F + COc1c(OCCCN2CCOCC2)ccc2c3n(c(=NC(=O)c4cnc(N)nc4)nc12)CCN3
Response: 4.14

Query: Now the compound CC(=O)c1c(C)c2cnc(Nc3ccc(N4CCNCC4)cn3)nc2n(C2CCCC2)c1=O + Cc1nc(NC(=O)N2CCCC2C(N)=O)sc1-c1ccnc(C(C)(C)C(F)(F)F)c1
Response: 75.6

Query: Now the compound CC1(C)CCC(CN2CCN(c3ccc(C(=O)NS(=O)(=O)c4ccc(NCC5CCOCC5)c([N+](=O)[O-])c4)c(Oc4cnc5[nH]ccc5c4)c3)CC2)=C(c2ccc(Cl)cc2)C1 + Cc1nc(NC(=O)N2CCCC2C(N)=O)sc1-c1ccnc(C(C)(C)C(F)(F)F)c1
Response: 99.7

Query: Now the compound Cn1ncnc1[C@H]1c2n[nH]c(=O)c3cc(F)cc(c23)N[C@@H]1c1ccc(F)cc1 + CC(Nc1ccc2c(c1)OCCn1cc(N3C(=O)OCC3C(F)F)nc1-2)C(N)=O
Response: 56

Query: Now the compound CCCS(=O)(=O)Nc1ccc(F)c(C(=O)c2c[nH]c3ncc(-c4ccc(Cl)cc4)cc23)c1F + CC(Nc1ccc2c(c1)OCCn1cc(N3C(=O)OCC3C(F)F)nc1-2)C(N)=O
Response: 85.3

Query: Now the compound CCN1CCN(Cc2ccc(Nc3ncc(F)c(-c4cc(F)c5nc(C)n(C(C)C)c5c4)n3)nc2)CC1 + COc1c(OCCCN2CCOCC2)ccc2c3n(c(=NC(=O)c4cnc(N)nc4)nc12)CCN3
Response: 2.96

Query: Now the compound C[C@@H](NC(=O)c1ncnc(N)c1Cl)c1ncc(C(=O)Nc2cc(C(F)(F)F)c(Cl)cn2)s1 + COc1c(OCCCN2CCOCC2)ccc2c3n(c(=NC(=O)c4cnc(N)nc4)nc12)CCN3
Response: 5.16

Query: Now the compound Cn1ncc(Cl)c1-c1cc(C(=O)NC(CN)Cc2cccc(F)c2)sc1Cl (stereo unspecified) + Cc1nc(NC(=O)N2CCCC2C(N)=O)sc1-c1ccnc(C(C)(C)C(F)(F)F)c1
Response: 91.3

Query: Now the compound Cn1nccc1Nc1nccc(-c2ccn(C(CO)c3ccc(Cl)c(F)c3)c(=O)c2)n1 (stereo unspecified) + Cc1nc(NC(=O)N2CCCC2C(N)=O)sc1-c1ccnc(C(C)(C)C(F)(F)F)c1
Response: 81.3

Query: Now the compound C#Cc1c(F)ccc2cc(O)cc(-c3ncc4c(N5CC6CCC(C5)N6)nc(OCC56CCCN5CC(F)C6)nc4c3F)c12 (stereo unspecified) + CC(Nc1ncnc2nc[nH]c12)c1cc2cccc(Cl)c2c(=O)n1-c1ccccc1
Response: 68
